// provenance: patent US8748624B2

- Target Or Test System: human glucagon receptor (GCGR) (Homo sapiens (Human))
- Sequence (P47871 26-477): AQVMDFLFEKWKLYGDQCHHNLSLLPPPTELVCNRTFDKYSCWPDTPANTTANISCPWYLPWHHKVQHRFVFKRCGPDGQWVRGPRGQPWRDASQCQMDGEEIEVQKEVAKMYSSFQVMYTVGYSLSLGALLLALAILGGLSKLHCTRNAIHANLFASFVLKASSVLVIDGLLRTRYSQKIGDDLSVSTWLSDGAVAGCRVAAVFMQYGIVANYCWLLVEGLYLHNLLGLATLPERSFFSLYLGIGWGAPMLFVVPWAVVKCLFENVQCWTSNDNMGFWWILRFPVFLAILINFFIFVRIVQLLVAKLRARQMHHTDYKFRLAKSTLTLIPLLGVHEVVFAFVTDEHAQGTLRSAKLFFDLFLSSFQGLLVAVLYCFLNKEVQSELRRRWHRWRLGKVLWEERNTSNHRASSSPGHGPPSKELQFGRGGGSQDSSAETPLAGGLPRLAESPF
- Test: Inhibition of 125I-glucagon binding to membranes from HEK293 cells expressing the human glucagon receptor
- Assay Conditions: membranes of hGluc-1 HEK cells, 125I-glucagon 0.3 nM, 2 hours room temperature; IC50 converted to Ki; average if tested more than once
Experimental Readout: Ki (nM)

For orientation, consider the following solved cases.
Compound: O=C(O)CCNC(=O)c1ccc(-c2cc(C(F)(F)F)ccc2CNc2ccc(-c3ccc(Cl)cc3)c(Cl)c2)cn1 [Compound 28]
Ki / nM: 28
//
Compound: Cc1ccc(-c2ccc(NCc3cc(F)c(F)cc3-c3ccc(C(=O)NCCC(=O)O)nc3)cc2Cl)c(F)c1 [Compound 105]
Ki / nM: 33
//
Compound: COc1cc(NCc2ccc(Cl)cc2-c2ccc(C(=O)NCCC(=O)O)nc2)ccc1-c1ccc(C(F)(F)F)cc1 [Compound 54]
Ki / nM: 48.5

[A] O=C(O)CCNC(=O)c1ccc(-c2cc(C(F)(F)F)ccc2CNc2ccc(-c3cccc(F)c3)cc2)cn1 [Compound 62]
[B] Cc1cc(-c2ccc(NCc3cc(F)c(F)cc3-c3ccc(C(=O)NCCC(=O)O)nc3)cc2C#N)ccc1F [Compound 115]
[C] O=C(O)CCNC(=O)c1ccc(-c2cc(C(F)(F)F)ccc2CNc2ccc(-c3ccc(Cl)cc3)cc2)cn1 [Compound 44]
Prompt line: Arrange these compounds by their Ki, starting with the largest number. # answer = labels listed in requested order
Response line: B, A, C
(B: 95.7 nM, A: 37.4 nM, C: 18.4 nM)

====

- Target Or Test System: human GCGR (Homo sapiens (Human), UniProt P47871)
- Sequence (P47871 26-477): as above
- Test: Cellular functional assay, cAMP readout (glucagon-stimulated cAMP in HEK293 cells expressing human GCGR)
- Assay type: cell-based
- Assay Conditions: hGluc-1 HEK cells, LANCE TR-FRET, IC50 converted to Ki, average if tested more than once
- Procedure: IC50 Values in Cellular Functional Assays: cAMP Readout Full-length human GCGR (Accession Number: NM000160) subcloned into pcDNA3.1 was stably transfected into HEK293 cells (hGluc-1 HEK) and maintained under G418 selection (500 μg/mL). […] Glucagon stimulated cAMP was quantified using LANCE technology as per manufacturer instructions. […] The mixture was incubated, protected from light for 1.5 h. cAMP levels were quantified by TR-FRET in an EnVision instrument against a known standard. […]
pKi: −log10 of the molar value.
Experimental Readout: pKi

For orientation, consider the following solved cases.
Molecule: N#Cc1cc(NCc2cc(F)c(F)cc2-c2ccc(C(=O)NCCC(=O)O)nc2)ccc1-c1ccc(F)c(C(F)(F)F)c1 [Compound 109]
pKi: 6.94

Molecule: O=C(O)CCNC(=O)c1ccc(-c2cc(C(F)(F)F)ccc2CNc2ccc(-c3ccc(C(F)(F)F)cc3Cl)c(C(F)(F)F)c2)cn1 [Compound 128]
pKi: 7.34

Molecule: O=C(O)CCNC(=O)c1ccc(-c2cc(C(F)(F)F)ccc2CNc2ccc(-c3ccc(Cl)cc3)cc2)cn1 [Compound 44]
pKi: 7.22

Molecule: Cc1cc(Cl)ccc1-c1ccc(NCc2ccc(C(F)(F)F)cc2-c2ccc(C(=O)NCCC(=O)O)nc2)cc1C(F)(F)F [Compound 119]
pKi: 7.22

[1] O=C(O)CCNC(=O)c1ccc(-c2cc(C(F)(F)F)cc(C(F)(F)F)c2CNc2ccc(-c3ccc(Cl)cc3)cc2)cn1 [Compound 71]
[2] Cc1cc(C(F)(F)F)ccc1-c1ccc(NCc2c(C)cc(C(F)(F)F)cc2-c2ccc(C(=O)NCCC(=O)O)nc2)cc1Cl [Compound 166]
Prompt line: Lower value for measured pKi? Options: 1 , 2 Give the chosen item's label as your response.
Response line: 1
(1: 7.76, 2: 8.09)

====

- Target Or Test System: human GCGR (Homo sapiens (Human))
- Test: Cellular functional assay, cAMP readout (glucagon-stimulated cAMP in HEK293 cells expressing human GCGR)
- Assay type: cell-based
- Assay Conditions: hGluc-1 HEK cells, LANCE TR-FRET, IC50 converted to Ki, average if tested more than once
Experimental Readout: Ki (nM)

For orientation, consider the following solved cases.
Molecular String: O=C(O)CCNC(=O)c1ccc(-c2cc(F)c(F)cc2CNc2ccc(-c3ccc(Cl)cc3Cl)c(Cl)c2)cn1
Ki [nM]: 84.9
--
Molecular String: Cc1cc(Cl)ccc1-c1ccc(NCc2c(Cl)cc(C(F)(F)F)cc2-c2ccc(C(=O)NCCC(=O)O)nc2)cc1
Ki [nM]: 3.7
--
Molecular String: O=C(O)CCNC(=O)c1ccc(-c2cc(C(F)(F)F)ccc2CNc2ccc(-c3ccc(Cl)cc3)c(Cl)c2)cn1
Ki [nM]: 31.6

[A] O=C(O)CCNC(=O)c1ccc(-c2cc(Cl)ccc2CNc2ccc(-c3ccc(Cl)c(F)c3)cc2F)cn1
[B] O=C(O)CCNC(=O)c1ccc(-c2cc(Cl)ccc2CNc2ccc(-c3ccc(Cl)c(Cl)c3)cc2)cn1
Prompt line: Of the two listed items, A and B , which carries the larger Ki figure? Give the chosen item's label as your response.
Response line: A

====

- Target Or Test System: human glucagon receptor (GCGR) (Homo sapiens (Human))
- Test: Inhibition of 125I-glucagon binding to membranes from HEK293 cells expressing the human glucagon receptor
- Assay Conditions: membranes of hGluc-1 HEK cells, 125I-glucagon 0.3 nM, 2 hours room temperature; IC50 converted to Ki; average if tested more than once
pKi: −log10 of the molar value.
Experimental Readout: pKi

Compound: O=C(O)CCNC(=O)c1ccc(-c2cc(Cl)ccc2CNc2ccc(-c3ccc(F)c(Cl)c3)cc2)cn1 [Compound 150]
Experimental Readout: pKi
Recorded Number: 7.56

[a] O=C(O)CCNC(=O)c1ccc(-c2cc(F)ccc2CNc2ccc(-c3ccc(C(F)(F)F)cc3)c(F)c2)cn1 [Compound 56]
[b] O=C(O)CCNC(=O)c1ccc(-c2cc(Cl)ccc2C(=O)Nc2ccc(-c3ccc(Cl)cc3Cl)cc2)cn1 [Compound 19]
[c] Cc1cc(C(F)(F)F)ccc1-c1ccc(NCc2ccc(C(F)(F)F)cc2-c2ccc(C(=O)NCCC(=O)O)nc2)cc1Cl [Compound 43]
[d] CN(Cc1ccc(Cl)cc1-c1ccc(C(=O)NCCC(=O)O)nc1)c1ccc(-c2ccc(Cl)cc2)cc1 [Compound 17]
Prompt line: Arrange these compounds by their pKi, starting with the largest number. # answer = labels listed in requested order
Response line: c, b, a, d
(c: 7.76, b: 7.40, a: 7.01, d: 5.83)

====

- Target Or Test System: human GCGR (Homo sapiens (Human), UniProt P47871)
- Test: Cellular functional assay, cAMP readout (glucagon-stimulated cAMP in HEK293 cells expressing human GCGR)
- Type: cell-based
- Assay Conditions: hGluc-1 HEK cells, LANCE TR-FRET, IC50 converted to Ki, average if tested more than once
pKi: −log10 of the molar value.
Experimental Readout: pKi

For orientation, consider the following solved cases.
Compound: O=C(O)CCNC(=O)c1ccc(-c2ccc(Cl)cc2CNc2ccc(-c3ccc(Cl)cc3)cc2)cn1 [Compound 4]
pKi: 6.68
--
Compound: Cc1ccc(CNc2ccc(-c3ccc(Cl)cc3)cc2)c(-c2ccc(C(=O)NCCC(=O)O)nc2)c1 [Compound 68]
pKi: 6.82
--
Compound: O=C(O)CCNC(=O)c1ccc(-c2cc(Cl)ccc2CNc2ccc(-c3ccc(C(F)(F)F)cc3)c(F)c2)cn1 [Compound 90]
pKi: 6.55
--
Compound: Cc1cc(C(F)(F)F)cc(-c2ccc(C(=O)NCCC(=O)O)nc2)c1CNc1ccc(-c2ccc(C(F)(F)F)cc2)c(Cl)c1 [Compound 163]
pKi: 7.84
--
Compound: O=C(O)CCNC(=O)c1ccc(-c2cc(Cl)ccc2CNc2ccc(-c3ccc(F)cc3F)c(Cl)c2)cn1 [Compound 63]
pKi: 6.73
--
Compound: Cc1cc(C(F)(F)F)ccc1-c1ccc(NCc2c(-c3ccc(C(=O)NCCC(=O)O)nc3)cc(C(F)(F)F)cc2C(C)C)cc1Cl [Compound 167]
pKi: 7.97

[A] C=C(C)c1ccc(CNc2ccc(-c3ccc(F)cc3)cc2)c(-c2ccc(C(=O)NCCC(=O)O)nc2)c1 [Compound 157]
[B] O=C(O)CCNC(=O)c1ccc(-c2ccccc2CNc2ccc(-c3ccc(C(F)(F)F)cc3)cc2)cn1 [Compound 9]
[C] O=C(O)CCNC(=O)c1ccc(-c2cc(C(F)(F)F)ccc2CNc2ccc(-c3ccc(F)cc3F)c(C(F)(F)F)c2)cn1 [Compound 125]
[D] O=C(O)CCNC(=O)c1ccc(-c2cc(Cl)ccc2CNc2ccc(-c3ccccc3F)cc2)cn1 [Compound 133]
Prompt line: Give the ascending ranking of the items by reported pKi. # answer = labels listed in requested order
Response line: D, B, C, A

====

- Target Or Test System: human glucagon receptor (GCGR) (Homo sapiens (Human))
- Test: Inhibition of 125I-glucagon binding to membranes from HEK293 cells expressing the human glucagon receptor
- Assay Conditions: membranes of hGluc-1 HEK cells, 125I-glucagon 0.3 nM, 2 hours room temperature; IC50 converted to Ki; average if tested more than once
Experimental Readout: Ki (µM)

For orientation, consider the following solved cases.
Molecular String: Cc1cc(-c2ccc(NCc3ccc(Cl)cc3-c3ccc(C(=O)NCCC(=O)O)nc3)cc2Cl)ccc1F
Experimental Readout: Ki
Recorded Number: 0.0291

Molecular String: O=C(O)CCNC(=O)c1ccc(-c2cc(C(F)(F)F)c(Cl)cc2CNc2ccc(-c3ccc(Cl)cc3Cl)cc2)cn1
Experimental Readout: Ki
Recorded Number: 0.0338

[1] O=C(O)CCNC(=O)c1ccc(-c2cc(-c3ccccc3)ccc2CNc2ccc(-c3ccc(Cl)cc3Cl)cc2)cn1
[2] O=C(O)CCNC(=O)c1ccc(-c2cc(C(F)(F)F)cc(Cl)c2CNc2ccc(-c3ccc(Cl)cc3)c(Cl)c2)cn1
[3] N#Cc1cccc(CNc2ccc(-c3ccc(Cl)cc3)cc2)c1-c1ccc(C(=O)NCCC(=O)O)nc1
[4] O=C(O)CCNC(=O)c1ccc(-c2ccccc2CNc2ccc(-c3ccc(Cl)cc3)cc2)cn1
[5] N#Cc1cc(NCc2cc(F)c(F)cc2-c2ccc(C(=O)NCCC(=O)O)nc2)ccc1-c1ccc(Cl)cc1Cl
Prompt line: Give the ascending ranking of the items by reported Ki. # answer = labels listed in requested order
Response line: 2, 1, 5, 3, 4
(2: 0.0149 µM, 1: 0.027 µM, 5: 0.0404 µM, 3: 0.0687 µM, 4: 0.187 µM)

[1] O=C(O)CCNC(=O)c1ccc(-c2cc(F)c(F)cc2CNc2ccc(-c3ccc(Cl)cc3Cl)c(Cl)c2)cn1
[2] N#Cc1cc(NCc2cc(F)c(F)cc2-c2ccc(C(=O)NCCC(=O)O)nc2)ccc1-c1ccc(Cl)cc1
Prompt line: Of the two listed items, 1 and 2 , which carries the larger Ki figure? Give the chosen item's label as your response.
Response line: 2
(2: 0.0435 µM, 1: 0.0239 µM)

[I] O=C(O)CCNC(=O)c1ccc(-c2cc(F)c(F)cc2C(=O)Nc2ccc(-c3ccc(C(F)(F)F)cc3)cc2)cn1
[II] O=C(O)CCNC(=O)c1ccc(-c2cc(Cl)ccc2CNc2ccc(-c3cc(F)cc(F)c3)cc2)cn1
Prompt line: Of the two listed items, I and II , which carries the larger Ki figure? Give the chosen item's label as your response.
Response line: II

[A] Cc1cc(NCc2cc(Cl)c(C(F)(F)F)cc2-c2ccc(C(=O)NCCC(=O)O)nc2)ccc1-c1ccc(Cl)cc1
[B] O=C(O)CCNC(=O)c1ccc(-c2cc(C3=CCCCC3)ccc2CNc2ccc(-c3ccc(Cl)cc3Cl)cc2)cn1
Prompt line: Of the two listed items, A and B , which carries the larger Ki figure? Give the chosen item's label as your response.
Response line: B
